# METHOD: Acute oral toxicity in white rats
# CONDITION_LABEL: rat, in vivo
OBSERVATION_TYPE: LD50 (mg/kg)
Give bare numbers, in mg/kg.

query: Given CCC(=O)OCOC(=O)CC [Methylene Bispropionate] , state its recorded LD50.
result: 2800

====

# Tested on: All Species
# METHOD: Control of seed- and soil-borne pathogens during storage of corn seeds (Table IV), all species
# Format: cell-based, Rhizopus, Penicillium, Fusarium
# CONDITION_LABEL: 2.5 Oz./100 Lbs.; relative to untreated check
Hi, to clarify the labels: class 1 covers % Control All Species from 90% upward, class 0 covers anything below 90%.

Examples from the recorded data:
- COMPOUND: "CCC(=O)OCOC(=O)CC [Methylene Bispropionate]"
  CLASSIFICATION: "class 1"
- COMPOUND: "CCC(=O)OC(OC(=O)CC)c1ccccc1 [Benzylidene Bispropionate]"
  CLASSIFICATION: "class 0"
- COMPOUND: "CCC(=O)OC(OC(=O)CC)C(Cl)(Cl)Cl [2,2,2-Trichloroethylidene Bispropionate]"
  CLASSIFICATION: "class 0"
- COMPOUND: "CCC(=O)O [Propionic acid, reference compound]"
  CLASSIFICATION: "class 0"
- COMPOUND: "CCC(=O)OC(C)OC(=O)CC [Ethylidene Bispropionate]"
  CLASSIFICATION: "class 0"

query: % Control All Species >= 90% for CC(=O)OC(C)OC(C)=O [Ethylidene Bisacetate] ?
result: class 0

query: Would you say CC(C)C(=O)OCOCOC(=O)C(C)C [Oxybismethylene Bisisobutyrate] shows % Control All Species at minimum 90%?
result: class 0

query: Does the reported % Control All Species for CC(C)C(=O)OCOC(=O)C(C)C [Methylene Bisisobutyrate] fall at or above the 90% mark?
result: class 1

query: Quick check, % Control All Species >= 90%? CCCC(=O)OCOCOC(=O)CCC [Oxybismethylene Bisbutyrate]
result: class 1
